Measured values drawn from ChEMBL document CHEMBL4024784 for this set.

- targetSystem: Adenosine receptor A2a (Homo sapiens, UniProt P29274)
- Sequence (P29274 whole entry): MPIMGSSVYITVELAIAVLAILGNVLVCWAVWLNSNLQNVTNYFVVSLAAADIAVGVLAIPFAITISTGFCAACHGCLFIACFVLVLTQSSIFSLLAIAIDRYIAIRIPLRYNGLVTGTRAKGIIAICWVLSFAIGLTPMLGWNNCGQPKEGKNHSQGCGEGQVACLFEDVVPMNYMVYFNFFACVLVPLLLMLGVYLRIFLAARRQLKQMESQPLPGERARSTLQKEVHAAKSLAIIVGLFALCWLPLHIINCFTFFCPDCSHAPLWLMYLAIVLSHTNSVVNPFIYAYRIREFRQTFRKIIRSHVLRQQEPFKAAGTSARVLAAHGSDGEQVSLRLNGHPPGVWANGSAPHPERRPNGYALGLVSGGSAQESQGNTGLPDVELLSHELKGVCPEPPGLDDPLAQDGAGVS
- protocol: Displacement of [3H]NECA from recombinant human adenosine A2A receptor expressed in CHO cell membranes after 3 hrs
pKi: −log10 of the molar value.
assayReadout: pKi

Solved cases below.
Cc1cc(C)n(C[C@H]2O[C@@H](n3cnc4c(N[C@@H]5CCOC5)nc(Cl)nc43)[C@H](O)[C@@H]2O)n1	4.92
Cc1cc(C)n(C[C@H]2O[C@@H](n3cnc4c(NC5CC6CCC5C6)ncnc43)[C@H](O)[C@@H]2O)n1 (mixture of isomers)	4.71
Cc1cc(C)n(C[C@H]2O[C@@H](n3cnc4c(Nc5ccc(Cl)cc5F)ncnc43)[C@H](O)[C@@H]2O)n1	5.17
Cc1cc(C)n(C[C@H]2O[C@@H](n3cnc4c(NC5CC6CCC5C6)nc(Cl)nc43)[C@H](O)[C@@H]2O)n1 (mixture of isomers)	5.03

[I] O[C@@H]1[C@H](O)[C@@H](CCl)O[C@H]1n1cnc2c(N[C@@H]3CCOC3)nc(Cl)nc21
[II] Cc1cc(C)n(C[C@H]2O[C@@H](n3cnc4c(N[C@@H]5CCOC5)ncnc43)[C@H](O)[C@@H]2O)n1
[III] O[C@@H]1[C@H](O)[C@@H](CCl)O[C@H]1n1cnc2c(Nc3ccc(Cl)cc3F)nc(Cl)nc21
QUERY: Provide the items ranked by increasing pKi. Output spec: a listing of the labels in the requested order.
RESULT: II, I, III
(II: 4.54, I: 5.06, III: 5.71)
